Data provenance: patent US20230374140A1

# measurement_target: T1, NC1 peptide … / HLA-A*02:01 complex (human)
# T1 construct: whole, on cells; On pulsed T2 cells; also pulled down from BV173 lysate (HLA-A*02) and presented on JMN cells
# assay_text: FACS, scFv phage on T2 cells loaded with single peptide

# binder, binding result
rows = [
    ("Clone 11 scFv phage clone (Clone 11 scFv) (scFv) scFv: NFMLTQPHSVSESPGKTVTISCTRSSGSIASNYVQWYQQRPGSAPTTVIYEDNQRPSGVPDRFSGSIDSSSNSASLTISGLKTEDEADYYCQSYDSSNVVFGGGTKLTVLGSRGGGGSGGGGSGGGGSLEMAQVQLVQSGAEVRKPGASVKVSCKASGYSFTSNGITWVRQAPGQGLEWMGWISGYNANTRYAQEFQARVTMTTDTSASTAYMELRSLRSDDTAVYYCARHAYWGGDSDYWGQGTLVTVSS", "no binding"),
    ("Clone 7 scFv phage clone (Clone 07 scFv) (scFv) scFv: QSVVTQPPSVSGAPGQRITISCTGSSSNIGAGYDVHWYQQLPGTAPKLLIFGNVNRPSGVPDRFSGSKSGTSASLAITGLQAEDEADYYCQSYDSSLSGWVFGGGTKLTVLGSRGGGGSGGGGSGGGGSLEMAQVQLQQSGAEVKKPGATVKVSCKASGYTFTSYGISWVRQAPGQGLEWMGWISAYNGNTNYAQKLQGRVTMTTDTSTSTAYMELRSLRSDDTAVYYCARMSMSEYIDYWGQGTLVTVSS", "no binding"),
    ("Clone 18 scFv phage clone (Clone 18 scFv) (scFv) scFv: QSVLTQPPSVSVAPGQKVTISCSGSSSNIGNNYVSWYQQLPGTAPKLLIYDNNKRPSGIPDRFSGSKSGTSATLGITGLQTGDEADYYCQSYDVYNMTSVFGGGTKLTVLGSRGGGGSGGGGSGGGGSLEMAQMQLVQSGAEVKKPGSSVKVSCKASGGTFSSYAISWVRQAPGQGLEWMGGIIPIFGTANYAQKFQGRVTITADESTSTAYMELSSLRSDDTAVYYCARGFSSWPGIDQWGQGTLVTVSS", "no binding"),
]
